System: Trypanosoma brucei
method: Inhibition of N-terminal His-tagged Trypanosoma brucei pteridine reductase 1 at 50 uM using di-hydrobiopterine as substrate measured at 1 min interval for 50 mins in presence of NADPH relative to control
// values below are reported inhibition

GET inhibition | system: Trypanosoma brucei | item: Nc1nc2c(C(=O)NCc3ccccc3)cc(O)c(O)c2s1
> 60%

Provide measured inhibition on Trypanosoma brucei for Nc1nc2ccc(C(=O)N(CCO)Cc3ccccc3)cc2s1 please.
> 60%

Provide inhibition, system Trypanosoma brucei, entry Nc1nc2ccc(C(=O)NCc3ccc(Cl)c(Cl)c3)cc2s1
> 60%

----------
Target sequence: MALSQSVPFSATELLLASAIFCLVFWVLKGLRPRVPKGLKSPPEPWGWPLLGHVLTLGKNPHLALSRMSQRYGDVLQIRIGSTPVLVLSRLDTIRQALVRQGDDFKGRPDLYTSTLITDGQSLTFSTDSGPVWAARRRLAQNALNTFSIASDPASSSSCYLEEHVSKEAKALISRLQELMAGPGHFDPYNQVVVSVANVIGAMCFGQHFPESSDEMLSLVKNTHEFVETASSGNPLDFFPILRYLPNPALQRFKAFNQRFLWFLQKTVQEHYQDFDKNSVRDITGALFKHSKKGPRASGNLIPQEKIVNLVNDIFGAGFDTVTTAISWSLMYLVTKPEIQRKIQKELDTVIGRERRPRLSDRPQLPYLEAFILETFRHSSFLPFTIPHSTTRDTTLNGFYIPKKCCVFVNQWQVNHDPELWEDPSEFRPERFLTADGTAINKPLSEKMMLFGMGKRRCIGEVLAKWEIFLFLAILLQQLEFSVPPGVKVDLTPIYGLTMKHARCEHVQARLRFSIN
readout-type: IC50

Completed entries (count: 5):
| smiles-str | IC50 |
| --- | --- |
| Nc1nc2c(O)cc(C(=O)NCc3ccc(Cl)c(Cl)c3)cc2s1 | > 25 µM |
| Nc1nc2ccc(C(=O)N(Cc3ccccc3)Cc3ccc(Cl)c(Cl)c3)cc2s1 | > 25 µM |
| Nc1nc2c(O)cc(C(=O)NCc3ccccc3)cc2s1 | > 25 µM |
| Nc1nc2c(C(=O)NCc3ccccc3)cc(O)c(O)c2s1 | > 25 µM |
| N#Cc1ccc(CSc2ccc3nc(N)sc3c2)cc1 | > 25 µM |

Specify measured IC50 for Nc1nc2ccc(C(=O)N(CCO)Cc3ccccc3)cc2s1 .
> 25 µM

Return the recorded IC50 value; entry: Nc1nc2ccc(S(=O)(=O)Cc3ccccc3)cc2s1
> 25 µM

Look up and state reported IC50 for Nc1nc2ccc(S(=O)(=O)Cc3ccc(Cl)c(Cl)c3)cc2s1
> 25 µM

Look up and state reported IC50 for Nc1nc2ccc(C(=O)NCCc3c[nH]c4ccccc34)cc2s1
> 25 µM
